Target: Squalene monooxygenase (Rattus norvegicus, UniProt P52020)
Sequence (P52020 whole entry): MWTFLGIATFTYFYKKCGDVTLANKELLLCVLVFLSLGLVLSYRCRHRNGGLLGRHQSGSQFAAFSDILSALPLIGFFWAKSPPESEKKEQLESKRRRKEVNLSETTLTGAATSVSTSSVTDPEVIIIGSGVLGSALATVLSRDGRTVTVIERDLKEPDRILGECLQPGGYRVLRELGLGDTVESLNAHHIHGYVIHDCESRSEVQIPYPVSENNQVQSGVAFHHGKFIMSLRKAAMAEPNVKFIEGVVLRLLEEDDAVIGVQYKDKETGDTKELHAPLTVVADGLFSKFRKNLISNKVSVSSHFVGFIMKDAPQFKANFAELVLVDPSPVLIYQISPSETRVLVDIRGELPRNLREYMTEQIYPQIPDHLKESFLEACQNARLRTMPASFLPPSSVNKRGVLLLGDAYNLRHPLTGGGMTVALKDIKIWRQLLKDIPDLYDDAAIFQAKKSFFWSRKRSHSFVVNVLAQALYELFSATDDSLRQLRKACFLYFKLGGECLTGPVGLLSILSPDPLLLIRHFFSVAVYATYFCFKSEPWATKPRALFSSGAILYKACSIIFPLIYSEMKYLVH
metric: pIC50
Answers are plain numbers, as −log10 of the molar value.

Here's what some known entries look like.
>>> print(df.to_string())
                                   compound                               assaysystem  reportedmeasurement
0  CC(C)=CCCC1(C)OC1CC/C(C)=C/CC/C=C(\C)CC/C=C(\C)CC[C@@H]1OC1(C)C (some centres undefined)  Squalene monooxygenase (Rattus norvegicus, UniProt P52020)                 6.96
1  CC(C)=CCC/C(C)=C/CC/C(C)=C/CCC1OC1(C)CC/C=C(\C)CC[C@@H]1OC1(C)C (some centres undefined)  Squalene monooxygenase (Rattus norvegicus, UniProt P52020)                 4.89
2  CC(C)=CCC/C(C)=C/CC/C(C)=C/CC/C=C(\C)CCC1OC1(C)CCC=C(C)C (centres undefined)  Squalene monooxygenase (Rattus norvegicus, UniProt P52020)                 4.50

// moving on: another record for pIC50
# input What reported pIC50 corresponds to CC(C)=CCC/C(C)=C/CC/C(C)=C/CCC1OC1(C)CC/C=C(\C)CCC=C(C)C (centres undefined) on Squalene monooxygenase (Rattus norvegicus, UniProt P52020)?
# output 4.29

Value source: ChEMBL document CHEMBL1150500
